The origin of these recorded values is patent US4396613A.

system: Haemophilus influenzae Holt; test: standard agar-dilution assay (MIC); format: cell-based; settings: ampicillin-sensitive strain, unit assumed
Could you please report measured MIC for the items listed next?
Answers are plain numbers, in µg/mL.

compound	MIC [µg/mL]
CCC1OC(=O)CC(O)C(C)C(OC2OC(C)C(OC3CC(C)(O)C(O)C(C)O3)C(N(C)C)C2O)C(CC=O)CC(C)C(=O)C=CC(C)=CC1COC(=O)NCCN1CCOCC1 (stereo not shown)	16
CCC1OC(=O)CC(O)C(C)C(OC2OC(C)C(OC3CC(C)(O)C(O)C(C)O3)C(N(C)C)C2OC(C)=O)C(CC=O)CC(C)C(=O)C=CC(C)=CC1COC(=O)CCc1ccccc1 (stereo not shown)	2
CCC(=O)OCC1C=C(C)C=CC(=O)C(C)CC(CC=O)C(OC2OC(C)C(OC3CC(C)(O)C(O)C(C)O3)C(N(C)C)C2OC(=O)CC)C(C)C(O)CC(=O)OC1CC (stereo not shown)	16
CCC(=O)OCC1C=C(C)C=CC(=O)C(C)CC(CC=O)C(OC2OC(C)C(OC3CC(C)(O)C(O)C(C)O3)C(N(C)C)C2OC(C)=O)C(C)C(O)CC(=O)OC1CC (stereo not shown)	16
CCC1OC(=O)CC(O)C(C)C(OC2OC(C)C(OC3CC(C)(O)C(O)C(C)O3)C(N(C)C)C2O)C(CC=O)CC(C)C(=O)C=CC(C)=CC1COC(=O)OC (stereo not shown)	8

Hi! Can you tell me MIC for each of these compounds?
1. CCC1OC(=O)CC(O)C(C)C(OC2OC(C)C(OC3CC(C)(O)C(O)C(C)O3)C(N(C)C)C2OC(C)=O)C(CC=O)CC(C)C(=O)C=CC(C)=CC1COC(=O)C(C)(C)C (stereo not shown)
2. CCC1OC(=O)CC(O)C(C)C(OC2OC(C)C(OC3CC(C)(O)C(O)C(C)O3)C(N(C)C)C2OC(C)=O)C(CC=O)CC(C)C(=O)C=CC(C)=CC1COC(=O)Cc1cc(OC)ccc1OC (stereo not shown)
3. CCC(=O)OC1C(OC2C(CC=O)CC(C)C(=O)C=CC(C)=CC(COC(C)=O)C(CC)OC(=O)CC(O)C2C)OC(C)C(OC2CC(C)(O)C(O)C(C)O2)C1N(C)C (stereo not shown)
4. CCC(=O)OCC1C=C(C)C=CC(=O)C(C)CC(CC=O)C(OC2OC(C)C(OC3CC(C)(O)C(O)C(C)O3)C(N(C)C)C2O)C(C)C(O)CC(=O)OC1CC (stereo not shown)
5. CCC1OC(=O)CC(O)C(C)C(OC2OC(C)C(OC3CC(C)(O)C(O)C(C)O3)C(N(C)C)C2OC(C)=O)C(CC=O)CC(C)C(=O)C=CC(C)=CC1COC(=O)Cc1ccc([N+](=O)[O-])cc1 (stereo not shown)

Output:
1. 16
2. 32
3. 16
4. 32
5. 8

Hi! Can you tell me MIC for each of these compounds?
1. CCC1OC(=O)CC(O)C(C)C(OC2OC(C)C(OC3CC(C)(O)C(O)C(C)O3)C(N(C)C)C2OC(C)=O)C(CC=O)CC(C)C(=O)C=CC(C)=CC1COC(=O)NCc1ccccc1 (stereo not shown)
2. CCC1OC(=O)CC(O)C(C)C(OC2OC(C)C(OC3CC(C)(O)C(O)C(C)O3)C(N(C)C)C2OC(C)=O)C(CC=O)CC(C)C(=O)C=CC(C)=CC1COC(=O)C=Cc1ccccc1 (stereo not shown)
3. CCC1OC(=O)CC(O)C(C)C(OC2OC(C)C(OC3CC(C)(O)C(O)C(C)O3)C(N(C)C)C2OC(C)=O)C(CC=O)CC(C)C(=O)C=CC(C)=CC1COC(=O)C(Cl)(Cl)Cl (stereo not shown)
4. CCC1OC(=O)CC(O)C(C)C(OC2OC(C)C(OC3CC(C)(O)C(O)C(C)O3)C(N(C)C)C2OC(C)=O)C(CC=O)CC(C)C(=O)C=CC(C)=CC1COC(=O)OC (stereo not shown)

Output:
[8, 128, 2, 16]

Hi! Can you tell me MIC for each of these compounds?
1. CCC1OC(=O)CC(O)C(C)C(OC2OC(C)C(OC3CC(C)(O)C(O)C(C)O3)C(N(C)C)C2OC(C)=O)C(CC=O)CC(C)C(=O)C=CC(C)=CC1COC(=O)Cc1ccccc1 (stereo not shown)
2. CCC1OC(=O)CC(O)C(C)C(OC2OC(C)C(OC3CC(C)(O)C(O)C(C)O3)C(N(C)C)C2O)C(CC=O)CC(C)C(=O)C=CC(C)=CC1COC(=O)NCCCCCCCCN (stereo not shown)
3. CCC1OC(=O)CC(O)C(C)C(OC2OC(C)C(OC3CC(C)(O)C(O)C(C)O3)C(N(C)C)C2O)C(CC=O)CC(C)C(=O)C=CC(C)=CC1COC(=O)n1ccnc1 (stereo not shown)

Output:
1. 4
2. 32
3. 16
